- System name: PI3Kγ (Homo sapiens)
- Sequence (P48736 whole entry, species assumed): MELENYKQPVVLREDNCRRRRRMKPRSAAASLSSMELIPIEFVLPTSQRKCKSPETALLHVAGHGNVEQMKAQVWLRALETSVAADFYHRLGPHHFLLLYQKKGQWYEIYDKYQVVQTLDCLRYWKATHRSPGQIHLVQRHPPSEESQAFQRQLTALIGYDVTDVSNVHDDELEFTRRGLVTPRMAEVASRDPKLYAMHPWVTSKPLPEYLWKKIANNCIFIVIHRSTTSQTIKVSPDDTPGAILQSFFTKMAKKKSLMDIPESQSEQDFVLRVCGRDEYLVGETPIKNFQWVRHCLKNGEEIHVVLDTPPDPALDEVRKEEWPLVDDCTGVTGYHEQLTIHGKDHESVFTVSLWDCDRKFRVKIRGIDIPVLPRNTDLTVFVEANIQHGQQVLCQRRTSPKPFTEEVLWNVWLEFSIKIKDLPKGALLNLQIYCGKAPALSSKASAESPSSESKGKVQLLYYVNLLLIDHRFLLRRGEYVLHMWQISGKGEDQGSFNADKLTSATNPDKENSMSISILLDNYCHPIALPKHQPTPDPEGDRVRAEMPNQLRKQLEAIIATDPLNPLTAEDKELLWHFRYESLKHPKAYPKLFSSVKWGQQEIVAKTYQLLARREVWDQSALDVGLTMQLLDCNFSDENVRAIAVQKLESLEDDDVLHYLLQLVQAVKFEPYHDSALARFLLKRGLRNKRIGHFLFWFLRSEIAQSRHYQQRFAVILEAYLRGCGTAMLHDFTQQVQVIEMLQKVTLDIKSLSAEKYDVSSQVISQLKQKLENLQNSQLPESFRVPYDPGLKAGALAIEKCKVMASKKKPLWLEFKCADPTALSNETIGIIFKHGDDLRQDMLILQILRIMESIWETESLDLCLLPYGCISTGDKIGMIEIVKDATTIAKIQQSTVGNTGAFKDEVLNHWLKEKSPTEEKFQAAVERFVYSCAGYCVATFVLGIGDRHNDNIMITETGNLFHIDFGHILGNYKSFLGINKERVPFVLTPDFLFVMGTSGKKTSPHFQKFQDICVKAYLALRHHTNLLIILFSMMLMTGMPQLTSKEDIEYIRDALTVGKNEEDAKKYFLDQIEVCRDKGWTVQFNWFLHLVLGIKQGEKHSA
- Experiment summary: PI3K inhibition assay, Protocol B (33P-ATP, glass fiber filter plate)
- Format: biochemical
- Stated conditions: Protocol B; 100 μM ATP, 46 μM PI(4,5)P2 diC16, 16.6 nM PI3Kγ; average if more than one result; read-out: PI3Kγ enzyme inhibition Ki
pKi: −log10 of the molar value.
Recorded measurements of pKi, one per entry
Reported property: pKi

compound="CC(=O)Nc1nc(C)c(-c2ccc(C(=O)N3CCC(O)C3)o2)s1 (centres unmarked) [Compound 14]" endpoint_value="6.00 to 7.00"
compound="CC(=O)Nc1nc(C)c(-c2ccc(S(=O)(=O)NCc3cccc(Br)c3)o2)s1 [Compound 38]" endpoint_value="> 7.00"
compound="COc1cc(CNS(=O)(=O)c2ccc(-c3sc(NC(C)=O)nc3C)o2)cc(OC)c1 [Compound 45]" endpoint_value="6.00 to 7.00"
compound="CC(=O)Nc1nc(C)c(-c2ccc(S(=O)(=O)NCC#N)o2)s1 [Compound 64]" endpoint_value="> 7.00"
compound="CC[C@@H](NS(=O)(=O)c1ccc(-c2sc(NC(C)=O)nc2C)o1)c1ccccc1 [Compound 66]" endpoint_value="> 7.00"
compound="CC(=O)Nc1nc(C)c(-c2ccc(S(=O)(=O)NC(C#N)c3ccccc3)o2)s1 (centres unmarked) [Compound 63]" endpoint_value="> 7.00"
compound="CC(=O)Nc1nc(C)c(-c2ccc(S(=O)(=O)N(C)CC(F)(F)F)o2)s1 [Compound 61]" endpoint_value="> 7.00"
compound="CC(=O)Nc1nc(C)c(-c2ccc(S(=O)(=O)NCc3cccc(O)c3)o2)s1 [Compound 41]" endpoint_value="> 7.00"
compound="CC(=O)Nc1nc(C)c(-c2ccc(S(=O)(=O)NCC(C)C)o2)s1 [Compound 25]" endpoint_value="> 7.00"
compound="CC(=O)Nc1nc(C)c(-c2ccc(S(=O)(=O)N[C@@H]3c4ccccc4C[C@@H]3O)o2)s1 [Compound 73]" endpoint_value="> 7.00"
compound="CC(=O)Nc1nc(C)c(-c2ccc(S(=O)(=O)N[C@@H](CO)c3ccccc3)o2)s1 [Compound 53]" endpoint_value="> 7.00"
compound="CC(=O)Nc1nc(C)c(-c2ccc(S(=O)(=O)N(C)CCO)o2)s1 [Compound 24]" endpoint_value="> 7.00"
compound="CC(=O)Nc1nc(C)c(-c2ccc(S(=O)(=O)N3CCN(Cc4ccccc4)CC3)o2)s1 [Compound 35]" endpoint_value="> 7.00"
compound="COC(=O)C(NS(=O)(=O)c1ccc(-c2sc(NC(C)=O)nc2C)o1)c1ccccc1 (centres unmarked) [Compound 62]" endpoint_value="> 7.00"
compound="CC(=O)Nc1nc(C)c(-c2ccc(C(=O)NCc3c(Cl)cccc3Cl)o2)s1 [Compound 18]" endpoint_value="6.00 to 7.00"
compound="CC(=O)Nc1nc(C)c(-c2ccc(S(=O)(=O)NCc3cccc(Cl)c3)o2)s1 [Compound 37]" endpoint_value="> 7.00"
compound="CC(=O)Nc1nc(C)c(-c2ccc(C(=O)N3CCCCC3)o2)s1 [Compound 11]" endpoint_value="6.00 to 7.00"
compound="CC(=O)Nc1nc(C)c(-c2ccc(S(=O)(=O)Nc3ccccc3)o2)s1 [Compound 33]" endpoint_value="> 7.00"
compound="CC(=O)Nc1nc(C)c(-c2ccc(S(=O)(=O)NCc3cccc(F)c3)o2)s1 [Compound 36]" endpoint_value="> 7.00"
compound="CC(=O)Nc1nc(C)c(-c2ccc(S(=O)(=O)NCCF)o2)s1 [Compound 59]" endpoint_value="> 7.00"
compound="CC(=O)Nc1nc(C)c(-c2ccc(S(=O)(=O)NC(C)(C)c3ccccc3)o2)s1 [Compound 54]" endpoint_value="> 7.00"
compound="CC(=O)Nc1nc(C)c(-c2ccc(C(=O)NCc3cc(Cl)cc(Cl)c3)o2)s1 [Compound 3]" endpoint_value="5.30 to 6.00"
compound="CC(=O)Nc1nc(C)c(-c2ccc(S(=O)(=O)NCc3cc(F)cc(F)c3)o2)s1 [Compound 46]" endpoint_value="> 7.00"
compound="CC(=O)Nc1nc(C)c(-c2ccc(S(=O)(=O)Nc3c(F)cccc3F)o2)s1 [Compound 70]" endpoint_value="6.00 to 7.00"
compound="CC(=O)Nc1nc(C)c(-c2ccc(C(=O)NCCC#N)o2)s1 [Compound 9]" endpoint_value="6.00 to 7.00"
compound="CC(=O)Nc1nc(C)c(-c2ccc(S(=O)(=O)N3CCN(C)CC3)o2)s1 [Compound 31]" endpoint_value="> 7.00"
compound="COc1ccccc1CNS(=O)(=O)c1ccc(-c2sc(NC(C)=O)nc2C)o1 [Compound 58]" endpoint_value="> 7.00"
compound="CC(=O)Nc1nc(C)c(-c2ccc(C(=O)N3CCCC(C)C3)o2)s1 (centres unmarked) [Compound 6]" endpoint_value="6.00 to 7.00"
compound="CC(=O)Nc1nc(C)c(-c2ccc(C(=O)N(C)Cc3ccco3)o2)s1 [Compound 2]" endpoint_value="6.00 to 7.00"
compound="CC(=O)Nc1nc(C)c(-c2ccc(S(=O)(=O)NC3CCCC3)o2)s1 [Compound 29]" endpoint_value="> 7.00"
compound="CC(=O)Nc1nc(C)c(-c2ccc(S(=O)(=O)NCc3ccccc3Cl)o2)s1 [Compound 55]" endpoint_value="> 7.00"
compound="CNS(=O)(=O)c1ccc(-c2sc(NC(C)=O)nc2C)o1 [Compound 20]" endpoint_value="> 7.00"
compound="CC(=O)NCCNS(=O)(=O)c1ccc(-c2sc(NC(C)=O)nc2C)o1 [Compound 27]" endpoint_value="> 7.00"
compound="CC(=O)Nc1nc(C)c(-c2ccc(S(=O)(=O)NCc3ccccc3C)o2)s1 [Compound 67]" endpoint_value="> 7.00"
compound="CC(=O)Nc1nc(C)c(-c2ccc(S(=O)(=O)N[C@H](C)c3ccccc3)o2)s1 [Compound 51]" endpoint_value="> 7.00"
